Tested on: murine TTC39A mRNA
Assay: Dose-dependent antisense inhibition of murine TTC39A in b.END cells
Assay type: cell-based, mouse
Settings: 4.375 nM, ~16 h
Oligonucleotides are written 5' to 3', each unit as a sugar letter and its base; * is a phosphorothioate linkage, no mark a phosphodiester; rarer units and linkages stand in square brackets, end groups in braces. Plain capitals give the bases only. e = 2'-O-(2-methoxyethyl) (MOE); [5mC] = 5-methylcytosine; d = 2'-deoxy (DNA)
property label: percent inhibition of TTC39A mRNA (%)
# unit: % | format: bare number

Record GCCTCAGAATCCTGGTGGGA (eG*e[5mC]*e[5mC]*eT*e[5mC]*dA*dG*dA*dA*dT*d[5mC]*d[5mC]*dT*dG*dG*eT*eG*eG*eG*eA; antisense) [ISIS 474437] . Reported percent inhibition of TTC39A mRNA: 5

Record TCCATGGAGTAGTTCTTGTA (eT*e[5mC]*e[5mC]*eA*eT*dG*dG*dA*dG*dT*dA*dG*dT*dT*d[5mC]*eT*eT*eG*eT*eA; antisense) [ISIS 474452] . Reported percent inhibition of TTC39A mRNA: 0

Record TCCTTGCTCAGCAGGTCGGC (eT*e[5mC]*e[5mC]*eT*eT*dG*d[5mC]*dT*d[5mC]*dA*dG*d[5mC]*dA*dG*dG*eT*e[5mC]*eG*eG*e[5mC]; antisense) [ISIS 474366] . Reported percent inhibition of TTC39A mRNA: 0

Record TGCACTGGTCCAGGGCCTCA (eT*eG*e[5mC]*eA*e[5mC]*dT*dG*dG*dT*d[5mC]*d[5mC]*dA*dG*dG*dG*e[5mC]*e[5mC]*eT*e[5mC]*eA; antisense) [ISIS 474351] . Reported percent inhibition of TTC39A mRNA: 6

Record CACCTGGGTTTGAGGTAGCT (e[5mC]*eA*e[5mC]*e[5mC]*eT*dG*dG*dG*dT*dT*dT*dG*dA*dG*dG*eT*eA*eG*e[5mC]*eT; antisense) [ISIS 474498] . Reported percent inhibition of TTC39A mRNA: 0
